- TEST METHOD NOTES: activity coefficient (dimensionless); of the first substance listed, at infinite dilution; xn = mol fraction of the nth substance listed
- DETAILS: 368.15 K; Liquid; Chromatography; x1 = 0
ENDPOINT NAME: activity coefficient
Numbers only.

Below, 6 compounds whose answers are already recorded.
c1ccccc1 [benzene] + COCC[N+]1(C)CCOCC1.O=S(=O)([N-]S(=O)(=O)C(F)(F)F)C(F)(F)F
1.31
CC(C)CO [2-methyl-1-propanol] + COCC[N+]1(C)CCOCC1.O=S(=O)([N-]S(=O)(=O)C(F)(F)F)C(F)(F)F
1.89
CCC[N+](=O)[O-] [1-nitropropane] + COCC[N+]1(C)CCOCC1.O=S(=O)([N-]S(=O)(=O)C(F)(F)F)C(F)(F)F
0.778
CCCCCCCCCC [decane] + COCC[N+]1(C)CCOCC1.O=S(=O)([N-]S(=O)(=O)C(F)(F)F)C(F)(F)F
98.2
C1CCCCCCC1 [cyclooctane] + COCC[N+]1(C)CCOCC1.O=S(=O)([N-]S(=O)(=O)C(F)(F)F)C(F)(F)F
22.1
C1CCCC1 [cyclopentane] + COCC[N+]1(C)CCOCC1.O=S(=O)([N-]S(=O)(=O)C(F)(F)F)C(F)(F)F
8.54

Consider the additional compound presented here.
Kindly note the recorded activity coefficient for Cc1ccc(C)cc1 [1,4-dimethylbenzene] + COCC[N+]1(C)CCOCC1.O=S(=O)([N-]S(=O)(=O)C(F)(F)F)C(F)(F)F , which is 2.96

###

- TEST METHOD NOTES: activity coefficient (dimensionless); of the first substance listed, at infinite dilution; xn = mol fraction of the nth substance listed
- DETAILS: 358.15 K; Liquid; Chromatography; x1 = 0
# label = 1 if activity coefficient < 3 else -1

Past entries and their recorded results:
C1CCCC1 [cyclopentane] + COCC[N+]1(C)CCOCC1.O=S(=O)([N-]S(=O)(=O)C(F)(F)F)C(F)(F)F
-1
C=CCCC [1-pentene] + COCC[N+]1(C)CCOCC1.O=S(=O)([N-]S(=O)(=O)C(F)(F)F)C(F)(F)F
-1
CC(C)=O [acetone] + COCC[N+]1(C)CCOCC1.O=S(=O)([N-]S(=O)(=O)C(F)(F)F)C(F)(F)F
1
CC(C)CO [2-methyl-1-propanol] + COCC[N+]1(C)CCOCC1.O=S(=O)([N-]S(=O)(=O)C(F)(F)F)C(F)(F)F
1
CCCC(C)=O [pentan-2-one] + COCC[N+]1(C)CCOCC1.O=S(=O)([N-]S(=O)(=O)C(F)(F)F)C(F)(F)F
1
C1CCOC1 [tetrahydrofuran] + COCC[N+]1(C)CCOCC1.O=S(=O)([N-]S(=O)(=O)C(F)(F)F)C(F)(F)F
1
Cc1ccccc1C [1,2-dimethylbenzene] + COCC[N+]1(C)CCOCC1.O=S(=O)([N-]S(=O)(=O)C(F)(F)F)C(F)(F)F
1
CCCC(=O)OC [methyl butanoate] + COCC[N+]1(C)CCOCC1.O=S(=O)([N-]S(=O)(=O)C(F)(F)F)C(F)(F)F
1

Hello, I'm reviewing records and need to know if activity coefficient of CC(C)(C)O [2-methylpropan-2-ol] + COCC[N+]1(C)CCOCC1.O=S(=O)([N-]S(=O)(=O)C(F)(F)F)C(F)(F)F is below 3. Could you check?
1
